# Tested on: L1210 leukemia ip in BDF1 mice, survival T/C
# ASSAY_SUMMARY: NCI In Vivo Anticancer Drug Screen. Data for tumor model L1210 Leukemia (intraperitoneal) in B6D2F1 (BDF1) mice
# ASSAY_CONDITIONS: endpoint: mean survival time; dose: 12.5 mg/kg/injection; schedule: Q01DX009 (ip); vehicle: saline with Tween-80; higher = longer survival
Inconclusive results and toxic doses are left out.
MEASUREMENT_KIND: T/C

>>> recorded_measurement("CCN(CC)Cc1cc(Nc2cc(C)nc(Nc3ccc(Cl)c(Cl)c3)n2)ccc1OC")
"98 % of control"
>>> recorded_measurement("N=C(N)c1ccc(Oc2ccc(-c3cc4ccc(C(=N)N)cc4[nH]3)cc2)cc1")
"119 % of control"
>>> recorded_measurement("CCCCCOS(=O)(=O)c1ccc(Cl)c([N+](=O)[O-])c1")
"93 % of control"
>>> recorded_measurement("N#C/C(=C\\c1ccc(-c2ccccc2)cc1)c1ccc([N+](=O)[O-])cc1")
"90 % of control"
>>> recorded_measurement("Cn1c2nc(=O)n(-c3ccccc3)c(=O)c-2nc2c1CCCC2")
"106 % of control"
>>> recorded_measurement("c1cc2c(cc1NC1=NCCO1)CCC2")
"95 % of control"

Hi there! I need T/C for each item below, if you can.
1. O=C1NC2C(NC(=O)N2Cl)N1Cl (configuration not stated)
2. COc1cc2c(c(OC)c1OC)-c1ccc(O)c(=O)cc1C(N)CC2 (configuration not stated)
3. OC1C2C3CCC(C3)C2C(O)C2C3CCC(C3)C12 (configuration not stated)
4. CS(=O)(=O)c1ccc(Sc2ccc(S(C)(=O)=O)cc2)cc1
5. Cc1c(N)cccc1N
6. O=C(C=C(C(F)(F)F)C(F)(F)F)c1cccc([N+](=O)[O-])c1

Result:
97 % of control
100 % of control
101 % of control
105 % of control
119 % of control
103 % of control

* * *

# Test system: L1210 leukemia ip in BDF1 mice, survival T/C
# ASSAY_SUMMARY: NCI In Vivo Anticancer Drug Screen. Data for tumor model L1210 Leukemia (intraperitoneal) in B6D2F1 (BDF1) mice
# ASSAY_CONDITIONS: endpoint: mean survival time; dose: 12.5 mg/kg/injection; schedule: Q01DX009 (ip); vehicle: saline; higher = longer survival
# Method: The antitumor activity of compounds was measured in mice bearing transplantable tumors. Survival or tumor size were measured and the results are expressed as the measurement made in the treated group (T) divided by the measurement made in the vehicle treated control group (C). The tumor model used in this assay is L1210 Leukemia (intraperitoneal) in B6D2F1 (BDF1) mice
Toxic doses and inconclusive results are not listed.
MEASUREMENT_KIND: T/C

>>> recorded_measurement("COC(=O)/C=C\\C=C(\\CBr)C(=O)OC")
"96 % of control"
>>> recorded_measurement("O=C(CCCN1CCC2(CC1)C(=O)NCN2c1ccccc1)c1ccc(F)cc1")
"92 % of control"
>>> recorded_measurement("CN(C)NCCN1CCN(CCCN2c3ccccc3Sc3ccc(C(F)(F)F)cc32)CC1")
"89 % of control"

Items follow; give T/C for each.
1. Clc1ccc2n[nH]c(Cl)c2c1
2. C=CCOB(OCC=C)OCC=C
3. COc1cc2c(cc1OC)CC[N+](C)=C2

Result:
95 % of control
120 % of control
92 % of control

Give T/C for each listed item.
1. NC(=O)CC[n+]1ccccc1
2. CC(C)=CCC(O)(c1ccccc1)C(C)CN(C)C (stereo not drawn)

Result:
97 % of control
94 % of control
